Test system: Rattus norvegicus
Assay: Antiinflammatory activity in albino rat assessed as inhibition of carrageenan-induced paw edema at […], po administered 1 hr prior to carrageenan challenge measured after 6 hrs relative to control
Assay type: functional

Compound | Unit abbrev | inhibition in vivo
COc1ccc(NCC2C(=O)N(C(=O)c3cc4ccccc4oc3=O)N=C2C)cc1 (stereo unspecified) | % | 55.1
CC1=NN(C(=O)c2cc3ccccc3oc2=O)C(=O)C1CNc1ccccn1 (stereo unspecified) | % | 50.3
CC1=NN(C(=O)c2cc3ccccc3oc2=O)C(=O)C1CNc1ccc([N+](=O)[O-])cc1 (stereo unspecified) | % | 72
CC1=NN(C(=O)c2cc3ccccc3oc2=O)C(=O)C1CNc1cccc(S(N)(=O)=O)c1 (stereo unspecified) | % | 79.9
COc1ccc2c(c1)c(CC(=O)O)c(C)n2C(=O)c1ccc(Cl)cc1 | % | 76
CC1=NN(C(=O)c2cc3ccccc3oc2=O)C(=O)C1CNc1c(O)cc(S(=O)(=O)O)c2ccccc12 (stereo unspecified) | % | 45.3
CC1=NN(C(=O)c2cc3ccccc3oc2=O)C(=O)C1CNc1ccc(Cl)cc1 (stereo unspecified) | % | 71.5
CC1=NN(C(=O)c2cc3ccccc3oc2=O)C(=O)C1CNc1ccc(O)c(C(=O)O)c1 (stereo unspecified) | % | 50.9
CC1=NN(C(=O)c2cc3ccccc3oc2=O)C(=O)C1CNc1ccc(C(=O)O)cc1 (stereo unspecified) | % | 72.6
CC1=NN(C(=O)c2cc3ccccc3oc2=O)C(=O)C1CNc1ccc(S(N)(=O)=O)cc1 (stereo unspecified) | % | 77.9
CC1=NN(C(=O)c2cc3ccccc3oc2=O)C(=O)C1CNc1ccc(O)cc1 (stereo unspecified) | % | 50.7

---

System: Rattus norvegicus
Assay: Antiinflammatory activity in albino rat assessed as inhibition of carrageenan-induced paw edema measured as paw thickness at 0.03 mmol/kg, po administered 1 hr prior to carrageenan challenge measured after 4 hrs (reference value: 1.260 +/- 0.172 mm)

Molecule | Tested on | Unit abbrev | Activity
CC1=NN(C(=O)c2cc3ccccc3oc2=O)C(=O)C1CNc1ccc(C(=O)O)cc1 (stereo unspecified) | Rattus norvegicus | mm | 1.26
CC1=NN(C(=O)c2cc3ccccc3oc2=O)C(=O)C1CNc1ccc(O)c(C(=O)O)c1 (stereo unspecified) | Rattus norvegicus | mm | 2.396
CC1=NN(C(=O)c2cc3ccccc3oc2=O)C(=O)C1CNc1c(O)cc(S(=O)(=O)O)c2ccccc12 (stereo unspecified) | Rattus norvegicus | mm | 2.715
CC1=NN(C(=O)c2cc3ccccc3oc2=O)C(=O)C1CNc1ccc(O)cc1 (stereo unspecified) | Rattus norvegicus | mm | 2.231
CC1=NN(C(=O)c2cc3ccccc3oc2=O)C(=O)C1CNc1ccc([N+](=O)[O-])cc1 (stereo unspecified) | Rattus norvegicus | mm | 1.32
COc1ccc2c(c1)c(CC(=O)O)c(C)n2C(=O)c1ccc(Cl)cc1 | Rattus norvegicus | mm | 1.144
COc1ccc(NCC2C(=O)N(C(=O)c3cc4ccccc4oc3=O)N=C2C)cc1 (stereo unspecified) | Rattus norvegicus | mm | 2.215
CC1=NN(C(=O)c2cc3ccccc3oc2=O)C(=O)C1CNc1ccccn1 (stereo unspecified) | Rattus norvegicus | mm | 2.389
CC1=NN(C(=O)c2cc3ccccc3oc2=O)C(=O)C1CNc1cccc(S(N)(=O)=O)c1 (stereo unspecified) | Rattus norvegicus | mm | 1.116
CC1=NN(C(=O)c2cc3ccccc3oc2=O)C(=O)C1CNc1ccc(S(N)(=O)=O)cc1 (stereo unspecified) | Rattus norvegicus | mm | 1.079
CC1=NN(C(=O)c2cc3ccccc3oc2=O)C(=O)C1CNc1ccc(Cl)cc1 (stereo unspecified) | Rattus norvegicus | mm | 1.956

---

Test system: Rattus norvegicus
Test: Ulcerogenic effect in po dosed rat assessed as lesions of bleedings
Format: toxicity, organism-based
Conditions: in vivo
Measurement label: Activity

Compound | Val
CC1=NN(C(=O)c2cc3ccccc3oc2=O)C(=O)C1CNc1ccc([N+](=O)[O-])cc1 (centres undefined) | Non-toxic
CC1=NN(C(=O)c2cc3ccccc3oc2=O)C(=O)C1CNc1ccc(Cl)cc1 (centres undefined) | Toxic
CC1=NN(C(=O)c2cc3ccccc3oc2=O)C(=O)C1CNc1ccccn1 (centres undefined) | Toxic
CC1=NN(C(=O)c2cc3ccccc3oc2=O)C(=O)C1CNc1ccc(C(=O)O)cc1 (centres undefined) | Non-toxic
CC1=NN(C(=O)c2cc3ccccc3oc2=O)C(=O)C1CNc1ccc(S(N)(=O)=O)cc1 (centres undefined) | Non-toxic
CC1=NN(C(=O)c2cc3ccccc3oc2=O)C(=O)C1CNc1ccc(O)c(C(=O)O)c1 (centres undefined) | Non-toxic
CC1=NN(C(=O)c2cc3ccccc3oc2=O)C(=O)C1CNc1cccc(S(N)(=O)=O)c1 (centres undefined) | Non-toxic
COc1ccc(NCC2C(=O)N(C(=O)c3cc4ccccc4oc3=O)N=C2C)cc1 (centres undefined) | Toxic
CC1=NN(C(=O)c2cc3ccccc3oc2=O)C(=O)C1CNc1ccc(O)cc1 (centres undefined) | Toxic

---

MIC listing for selected compounds.
Tested on: Micrococcus luteus
Assay: Antimicrobial activity against Micrococcus luteus assessed as zone of inhibition >8 mm by twofold serial dilution method
Type: functional

Compound | Tested on | MIC / µM
CC1=NN(C(=O)c2cc3ccccc3oc2=O)C(=O)C1CNc1ccc(O)c(C(=O)O)c1 (centres undefined) | Micrococcus luteus | 115
CC1=NN(C(=O)c2cc3ccccc3oc2=O)C(=O)C1CNc1ccc(O)cc1 (centres undefined) | Micrococcus luteus | 128
O=C(O)c1cn(C2CC2)c2cc(N3CCNCC3)c(F)cc2c1=O | Micrococcus luteus | 0.59
CC1=NN(C(=O)c2cc3ccccc3oc2=O)C(=O)C1CNc1ccc(Cl)cc1 (centres undefined) | Micrococcus luteus | 61
